Where do these numbers come from? They come from the supplement of paper PMC10126150.

Test system: ATP;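 also: ATP exposure 15 min at 22 °C before imaging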
Method description: switch fluorescence ratio, 500 uM ATP over buffer (Cy3 cluster intensity, sum of 5 cycles each) (fold (ratio)); higher = stronger signal-on switching upon ATP binding; sequences stand for … in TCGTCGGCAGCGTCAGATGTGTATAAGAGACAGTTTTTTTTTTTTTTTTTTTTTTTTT…TC
Cond: aptamer strand: ATP DNA aptamer (quencher-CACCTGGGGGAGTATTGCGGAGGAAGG + anchor), 100 nM annealed; ATP concentration: 500 uM
Property: switch fluorescence ratio; scope: individual sequences
Measure name: switch fluorescence ratio

| Ordered residues | Measure name | Measured result |
| --- | --- | --- |
| AATACGGGAG | switch fluorescence ratio | 0.995 |
| ATATTTTGTG | switch fluorescence ratio | 0.982 |
| GGTATTTTTT | switch fluorescence ratio | 0.997 |
| CGGGGTTCGG | switch fluorescence ratio | 0.996 |
| GGTATGTCGA | switch fluorescence ratio | 0.954 |
| TTGAGATATG | switch fluorescence ratio | 0.999 |
| TCCGAGGGTT | switch fluorescence ratio | 1.21 |
| AATTGGAAGG | switch fluorescence ratio | 0.993 |
| TTAGCGGTCA | switch fluorescence ratio | 1.01 |
| CGGTATAAGG | switch fluorescence ratio | 0.982 |

====

Property: switch fluorescence ratio; scope: individual sequences
Tested on: ATP;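 also: ATP exposure 15 min at 22 °C before imaging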
Method description: switch fluorescence ratio, 500 uM ATP over buffer (Cy3 cluster intensity, sum of 5 cycles each) (fold (ratio)); higher = stronger signal-on switching upon ATP binding; sequences stand for … in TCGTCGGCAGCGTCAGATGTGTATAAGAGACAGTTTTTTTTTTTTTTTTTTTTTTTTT…TC
Cond: aptamer strand: ATP DNA aptamer (quencher-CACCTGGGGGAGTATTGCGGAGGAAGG + anchor), 100 nM annealed; ATP concentration: 500 uM
Measure name: switch fluorescence ratio

| Ordered residues | Subject of test | Measured result |
| --- | --- | --- |
| TGGGCCGGGT | ATP | 1.03 |
| TTAGTGGGGG | ATP | 0.998 |
| TTTACTATAT | ATP | 1.04 |
| TTCTTTTGTT | ATP | 1 |
| TAGAAATTTC | ATP | 1.02 |
| GCCCTGATGC | ATP | 1.01 |
| GATTGTAGCT | ATP | 0.987 |
| GAGGGGACGA | ATP | 0.998 |
| GTGGGGTATG | ATP | 0.977 |
| AGGTCGGGGG | ATP | 0.988 |
| CGGGGTCGGA | ATP | 0.999 |
| CTGAACTGTG | ATP | 0.989 |
| GCGGAAAGGG | ATP | 0.992 |
| TGTGGCGGGA | ATP | 1.06 |
| AAGGAGTTGC | ATP | 0.973 |
| CATTTAAAG | ATP | 1.01 |
| AGAATGTTTC | ATP | 0.973 |
| TTGAGCAAGG | ATP | 1.06 |
| GTTGTGGTTC | ATP | 0.968 |
| ATTGTGGGCC | ATP | 0.975 |
| TCCAGTGTCG | ATP | 1.01 |
| TGCCAGTGGG | ATP | 1.04 |
| GACTATTGGG | ATP | 1 |
| GTAACTGCAG | ATP | 0.993 |
| CGCTCTGCGT | ATP | 1.01 |
| GGGTAGGCGC | ATP | 1.04 |
| TGAGGTATGC | ATP | 0.994 |
| GGGGTGGCGT | ATP | 1.07 |
| GTAAGGAAAG | ATP | 1.04 |
| AGGTTTGGGA | ATP | 0.987 |
| TAATAAGGAG | ATP | 1 |
| GCTGGCTTGC | ATP | 0.988 |
| CAATTCATGG | ATP | 0.992 |
| GGAAGATTTT | ATP | 0.989 |
| GGGTGTCCTT | ATP | 0.998 |
| GGTGCTGAAG | ATP | 1.01 |
| TCCTAGGTGT | ATP | 4 |
| TTTTTTGCCG | ATP | 1.05 |
| TCCGGCGGAC | ATP | 1.15 |
| TTGGGTGCTT | ATP | 1.02 |
| TGGAGAGTAG | ATP | 1.01 |
| CGTTTTTTCT | ATP | 0.974 |
| AAACTGAAAT | ATP | 1.76 |
